system: Plasmodium berghei; assay: Luciferase/luciferin-expressing antifolate-resistant parasites were used to infect a culture of HepG2 cells that were pre-incubated with compounds. Infected hepatocytes emit light due to the luciferase reaction. Assay results are presented as the percent inhibition of light emission compared to control. […]; type: functional; details: sporozoite, FFLUC_HILL_SLOPE 0.591, FFLUC_R_SQUARED 0.281, PBLUC_HILL_SLOPE 3.73, PBLUC_R_SQUARED 0.478, read-out: LUCIFERASE INFECTION ASSAY - IC50

compound	systemName	measurementUnits	IC50
COc1cccc(-c2cnc(N)c(-c3ccc(O)c(OC)c3)c2)c1	Plasmodium berghei	µM	4.04
